- systemTested: recombinant guanylate cyclase reporter cell line (Rattus norvegicus, UniProt P19686+P20595)
- Construct: expressed in transfected cells; host or cells: recombinant reporter cell line
- Sequence (P19686 1-690): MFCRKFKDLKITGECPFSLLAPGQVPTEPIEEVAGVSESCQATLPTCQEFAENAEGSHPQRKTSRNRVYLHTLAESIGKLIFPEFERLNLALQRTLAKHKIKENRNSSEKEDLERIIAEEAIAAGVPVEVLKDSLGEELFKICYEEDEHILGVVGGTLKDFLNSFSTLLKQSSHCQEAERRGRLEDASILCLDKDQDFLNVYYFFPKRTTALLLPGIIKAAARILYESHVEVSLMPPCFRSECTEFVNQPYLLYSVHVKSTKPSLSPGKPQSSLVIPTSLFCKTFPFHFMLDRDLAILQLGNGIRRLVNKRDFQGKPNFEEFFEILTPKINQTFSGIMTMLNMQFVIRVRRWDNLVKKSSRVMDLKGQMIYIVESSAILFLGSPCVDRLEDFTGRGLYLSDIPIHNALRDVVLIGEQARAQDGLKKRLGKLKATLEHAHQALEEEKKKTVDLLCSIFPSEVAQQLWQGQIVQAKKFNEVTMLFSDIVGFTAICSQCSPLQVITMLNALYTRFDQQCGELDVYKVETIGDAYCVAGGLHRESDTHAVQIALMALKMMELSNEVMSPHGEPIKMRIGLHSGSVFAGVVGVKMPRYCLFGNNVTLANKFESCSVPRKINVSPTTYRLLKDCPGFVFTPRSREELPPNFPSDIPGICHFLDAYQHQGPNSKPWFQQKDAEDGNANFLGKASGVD
- Sequence (P20595 1-619): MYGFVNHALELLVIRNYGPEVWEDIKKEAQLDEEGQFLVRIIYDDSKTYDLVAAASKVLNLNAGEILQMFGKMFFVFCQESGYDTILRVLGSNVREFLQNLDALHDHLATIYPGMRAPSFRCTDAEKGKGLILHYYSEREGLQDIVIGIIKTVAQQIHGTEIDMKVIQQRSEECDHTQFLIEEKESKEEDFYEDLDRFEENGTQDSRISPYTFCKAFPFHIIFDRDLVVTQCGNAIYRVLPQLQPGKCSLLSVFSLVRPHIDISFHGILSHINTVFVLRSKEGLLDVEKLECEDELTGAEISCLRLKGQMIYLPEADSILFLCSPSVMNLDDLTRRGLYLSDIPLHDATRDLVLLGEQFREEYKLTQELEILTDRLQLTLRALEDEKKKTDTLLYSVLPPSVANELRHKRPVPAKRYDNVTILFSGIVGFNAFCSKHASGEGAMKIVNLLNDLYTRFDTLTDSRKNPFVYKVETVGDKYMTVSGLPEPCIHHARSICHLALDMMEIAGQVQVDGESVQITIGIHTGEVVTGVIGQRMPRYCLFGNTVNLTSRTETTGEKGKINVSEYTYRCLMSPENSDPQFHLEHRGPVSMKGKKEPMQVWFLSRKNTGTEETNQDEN
- protocolText: Action on recombinant guanylate cyclase reporter cell line
- Format: cell-based
- conditionInfo: in some cases mean values from individual determinations
measuredAttribute: MEC (minimal effective concentration) (µM)

>  <compound>
Cc1nc2c(OCc3c(F)cccc3F)cccn2c1C(=O)NCC(C)(C)N [Example 72]

>  <measuredAttribute>
MEC (minimal effective concentration)

>  <unitAbbrev>
µM

>  <value>
0.30

$$$$
>  <compound>
COc1cccc(F)c1COc1cc(C)cn2c(C(=O)NCC(C)(C)N)c(C)nc12 [Example 352]

>  <measuredAttribute>
MEC (minimal effective concentration)

>  <unitAbbrev>
µM

>  <value>
3.00

$$$$
>  <compound>
CCOCC(CN)NC(=O)c1c(C)nc2c(OCc3c(F)cccc3F)cc(Cl)cn12 (single isomer, unassigned) [Example 57]

>  <measuredAttribute>
MEC (minimal effective concentration)

>  <unitAbbrev>
µM

>  <value>
0.30

$$$$
>  <compound>
COc1ccc(CC(C)(N)CNC(=O)c2c(C)nc3c(OCc4c(F)cccc4F)cc(C)cn23)cc1 (racemic) [Example 368]

>  <measuredAttribute>
MEC (minimal effective concentration)

>  <unitAbbrev>
µM

>  <value>
0.10

$$$$

a = Cc1cc(OCc2c(F)cccc2F)c2nc(C)c(C(=O)NCCNC(C)(C)C)n2c1 [Example 255]
b = Cc1nc2c(OCc3c(F)cccc3F)cc(Cl)cn2c1C(=O)NCC1CCCCN1 (single isomer, unassigned; ent-6) [Example 190]
Request: Pick one, a or b : lowest reported MEC (minimal effective concentration). Lab log: write the label of the selected item as the result.
Response: a
